molecular target: T1, human a-Mesothelin (Acro Biosystems; MSN_H5223) (human, UniProt Q13421 296-580, limits assumed); experiment: SPR, mesothelin immobilised, scFv analyte, 1:1 fit
T1 construct: Bought protein immobilised on the SPR chip; Printed as 'a-Mesothelin' but used as the antigen for the anti-MSLN scFvs; also called Human MSLN; MSLN
T1 sequence (Q13421 other isoform, or with tags, fused parts or gaps limits assumed): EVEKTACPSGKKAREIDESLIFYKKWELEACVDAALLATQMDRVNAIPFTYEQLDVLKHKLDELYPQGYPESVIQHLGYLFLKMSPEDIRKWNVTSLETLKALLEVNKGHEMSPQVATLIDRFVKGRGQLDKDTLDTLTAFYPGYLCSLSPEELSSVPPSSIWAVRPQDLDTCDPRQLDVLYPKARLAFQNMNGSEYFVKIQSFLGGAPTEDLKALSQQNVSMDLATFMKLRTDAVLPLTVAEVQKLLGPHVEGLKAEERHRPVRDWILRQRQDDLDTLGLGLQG
Measure: n-fold to wt (fold)
Give bare numbers, in fold.

For orientation, consider the following solved cases.
Binder | Result
PRO2945 (scFv 54-21-H03-sc01_(T101R)) (scFv, PRO1922 variant; VH substitution, AHo numbering; also called PRO1922 T101R) scFv: DIQMTQSPSSLSASVGDRVTITCQASESIYSSLAWYQQKPGKAPKLLIYLASTLASGVPSRFSGSGSGTDFTLTISSLQPEDFATYYCQSTDYTTSTHRNSFGTGTKVTVLGGGGGSGGGGSGGGGSGGGGSEVQLVESGGGLVQPGGSLRLSCAASGFSFSTTYYMCWVRQAPGKGLEWIGCTNTASSVRTYYATWAKGRFTISRDNSKNTVYLQMNSLRAEDRAVYYCARDMGFADYALNLWGQGTLVTVSS | 1.7
PRO2990 (scFv 54-21-H03-sc01_(L12S, V103T, L144T)) (scFv, VH substitutions, AHo numbering; also called PRO1922-L12S-V103T-L144T) scFv: DIQMTQSPSSLSASVGDRVTITCQASESIYSSLAWYQQKPGKAPKLLIYLASTLASGVPSRFSGSGSGTDFTLTISSLQPEDFATYYCQSTDYTTSTHRNSFGTGTKVTVLGGGGGSGGGGSGGGGSGGGGSEVQLVESGGGSVQPGGSLRLSCAASGFSFSTTYYMCWVRQAPGKGLEWIGCTNTASSVRTYYATWAKGRFTISRDNSKNTVYLQMNSLRAEDTATYYCARDMGFADYALNLWGQGTTVTVSS | 0.8

Which n-fold to wt is reported for this binder? PRO3323 (scFv 54-21-H03-sc01_(L12A, T101Q, L144A, T146Q)) (scFv, PRO1922 variant; VH substitutions, AHo numbering; also called PRO1922 L12A-T101Q-L144A-T146Q) scFv: DIQMTQSPSSLSASVGDRVTITCQASESIYSSLAWYQQKPGKAPKLLIYLASTLASGVPSRFSGSGSGTDFTLTISSLQPEDFATYYCQSTDYTTSTHRNSFGTGTKVTVLGGGGGSGGGGSGGGGSGGGGSEVQLVESGGGAVQPGGSLRLSCAASGFSFSTTYYMCWVRQAPGKGLEWIGCTNTASSVRTYYATWAKGRFTISRDNSKNTVYLQMNSLRAEDQAVYYCARDMGFADYALNLWGQGTAVQVSS
0.9
